These measurements were taken from patent US20230301300A1.

Examples of compounds with documented Herbicidal activity POAAN follow.
Tested on: Poa annua (POAAN)
Test: B2 Post-Emergence Efficacy - Test 2
Type: in vivo
Settings: 125 g/Ha, 15 days after application, 0-100 scale

ENTRY_SMILES: Cc1nn(C)c(=O)c(-c2c(F)ccc(Cl)c2CCc2ccccc2C(F)(F)F)c1O
Herbicidal activity POAAN: 90
//
ENTRY_SMILES: Cc1nn(C)c(=O)c(-c2c(F)ccc(Cl)c2CCc2ccc(F)cc2)c1OC(=O)C(C)C
Herbicidal activity POAAN: 60
//
ENTRY_SMILES: Cc1nn(C)c(=O)c(-c2c(F)ccc(Cl)c2CCc2ccc(F)cc2)c1O
Herbicidal activity POAAN: 80
//
ENTRY_SMILES: Cc1nn(C)c(=O)c(-c2c(F)ccc(Cl)c2CCc2ccc(C(F)(F)F)nc2)c1O
Herbicidal activity POAAN: 90
//
ENTRY_SMILES: Cc1nn(C)c(=O)c(-c2c(F)ccc(Cl)c2CCc2ccc(Cl)cc2)c1OC(=O)C(C)C
Herbicidal activity POAAN: 90
//
ENTRY_SMILES: Cc1nn(C)c(=O)c(-c2c(F)ccc(Cl)c2CCc2ccc(C#N)cc2)c1O
Herbicidal activity POAAN: 80
